Taken from ChEMBL document CHEMBL5032528.

# assay-target: Estrogen receptor (Homo sapiens)
# Sequence (P03372 whole entry): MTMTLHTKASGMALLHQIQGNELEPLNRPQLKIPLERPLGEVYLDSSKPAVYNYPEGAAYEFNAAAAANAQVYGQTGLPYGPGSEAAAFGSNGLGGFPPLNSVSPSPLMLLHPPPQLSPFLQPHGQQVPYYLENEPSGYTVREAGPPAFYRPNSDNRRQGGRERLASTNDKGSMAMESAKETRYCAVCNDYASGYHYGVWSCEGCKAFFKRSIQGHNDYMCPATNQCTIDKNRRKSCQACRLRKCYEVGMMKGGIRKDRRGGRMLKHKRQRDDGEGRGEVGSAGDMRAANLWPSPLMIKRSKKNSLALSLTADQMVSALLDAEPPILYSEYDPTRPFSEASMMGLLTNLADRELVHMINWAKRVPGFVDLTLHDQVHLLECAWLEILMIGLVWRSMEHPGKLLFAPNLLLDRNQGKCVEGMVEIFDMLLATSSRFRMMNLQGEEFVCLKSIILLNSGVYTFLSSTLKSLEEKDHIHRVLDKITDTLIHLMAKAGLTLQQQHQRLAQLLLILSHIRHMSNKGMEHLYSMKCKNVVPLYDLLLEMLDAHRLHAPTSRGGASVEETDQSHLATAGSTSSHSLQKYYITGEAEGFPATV
property-label: IC50 (nM)
Give bare numbers, in nM.

For orientation, consider the following solved cases.
>  <molecule>
CC(C)(F)CN1CCc2cc(O)ccc2C1c1ccc(C(=O)NO)cc1 (stereo not drawn)

>  <assay-target>
Estrogen receptor (Homo sapiens)

>  <units-of-measure>
nM

>  <numeric-result>
96.3

$$$$
>  <molecule>
CC(C)(F)CN1CCc2cc(O)ccc2C1c1ccc(OCCCCCCC(=O)NO)cc1 (stereo not drawn)

>  <assay-target>
Estrogen receptor (Homo sapiens)

>  <units-of-measure>
nM

>  <numeric-result>
90.8

$$$$

--- query ---
Recall and state the measured IC50 for CC(C)(F)CN1CCc2cc(O)ccc2C1c1ccc(OCCCCCC(=O)NO)cc1 (stereo not drawn) . 102
